Test system: NCI-H69 (Small Cell Lung Carcinoma)
measurementNotes: combination Emax (second highest fraction inhibited in the dose matrix, 72 h); higher = more inhibition; extreme values may be limits of the assay
measuredQuantity: combination Emax

compound	combination Emax
COc1cccc(OCCCN)c1-c1cc(Nc2cnc(C#N)cn2)n[nH]1 [Prexasertib] + O=C(c1cc(Cc2n[nH]c(=O)c3ccccc23)ccc1F)N1CCN(C(=O)C2CC2)CC1 [Olaparib] (first compound max 1 µM, 7x7, partner max 10 µM)	0.696

--- query ---
Ask: Record lookup: for NCI-H69 (Small Cell Lung Carcinoma), what combination Emax belongs to CC(=O)c1c(C)c2cnc(Nc3ccc(N4CCNCC4)cn3)nc2n(C2CCCC2)c1=O [Palbociclib] + Cc1c2c(nn1C)CSCc1cc(n(C)n1)CSc1cc(c3ccccc3c1)OCCCc1c(C(=O)O)n(C)c3c-2c(Cl)ccc13 [AZD5991] (first compound max 10 µM, 7x7, partner max 1 µM) ?
Result: 0.471
